Provenance of the data: PubChem BioAssay (NCI)

- Tested on: HL-60(TB) leukemia
- test.protocol: NCI tumour cell line growth inhibition, 48 h
metric.name: TGI

Worked set:
O=C(O)c1cc(O)c2c(c1)Cc1cccc(O)c1C2=O :: 47.2 µM
COc1ccc2c(c1)CCCN1CCc3cc(OC)c(OC)cc3C21 (stereo not drawn) :: > 100 µM
CC(C)(C)OC(=O)Nc1cc(-c2ccccc2)co1 :: > 100 µM

Dear reader, for each entry below, please note its TGI.
1. CC(C)c1cccc(C(C)C)c1N=C(N)C#N
2. ClC1(c2ccccc2)c2ccc(Br)cc2-c2cc(Br)ccc21
3. COc1cccc2c1C(=O)c1c(O)c3c(c(O)c1C2=O)C[C@@](O)(/C(C)=N/NC(=O)c1ccccc1)C[C@@H]3OC1CC(N)C(O)C(C)O1 (stereo partly drawn)
4. COC(OC)(c1ccccc1)C(I)I
5. C#Cc1cccc(Nc2ncnc3ccc(-c4cnc(Cl)c(NS(C)(=O)=O)c4)cc23)c1

## Output
1. > 65.3 µM
2. > 100 µM
3. 0.771 µM
4. 20.4 µM
5. 1.27 µM
